# measured.target: T1, cynomolgus PVRIG on cells (cynomolgus, UniProt A0A2K5WVV8 41-322)
# T1 construct: whole, on cells; also called cPVRIG; expi cPVRIG cells
# T1 sequence: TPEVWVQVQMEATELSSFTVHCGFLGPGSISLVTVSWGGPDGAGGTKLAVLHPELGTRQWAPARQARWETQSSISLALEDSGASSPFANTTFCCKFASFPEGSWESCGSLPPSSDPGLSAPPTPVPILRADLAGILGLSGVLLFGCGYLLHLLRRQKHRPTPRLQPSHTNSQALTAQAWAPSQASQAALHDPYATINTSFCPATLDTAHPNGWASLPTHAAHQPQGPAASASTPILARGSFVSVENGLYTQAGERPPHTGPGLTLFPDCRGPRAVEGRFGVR
# method: FACS, expi cPVRIG over expi parental cells, 3.3ug/ml
Catalogue of gMFIr Expi cyno OE/par readings, one per entry.

- binder: "CHA.7.544 (antibody, V domains shown) VH: QVQLKESGPGLVAPSQSLSITCTVSGFSLTSYAITWVRQPPGKGLEWLGVIWPGGGTNYNSALKSRLSISKDNSKSHLFLKMNSLQTDDTARYYCVRSYDGYLDWYFDVWGTGTTVTVSS VL: NIVMTQSPKSMSMSVGERVTLSCKASENVGTYVSWYQQKPDQSPKLLIYGASNRYTGVPDRFTGSGSATDFTLIISSVQAEDLSDYHCGQSYSYPYTFGGGTKLEII"
  gMFIr Expi cyno OE/par: 61.1
- binder: "CHA.7.550 (antibody, V domains shown) VH: QVQLQESGTELVKPGASVKLSCKASGYTFTSYWIHWVKQRPGQGLEWIGNINPSNGGTNYNEKFKSKAALTVDKSSSTAYMQLSSLTSEDSAVYYCARRGLPYFFDYWGQGTTLTVSS VL: DIVMTQSQKFMSTSVGDRVSVTCKGSQNVGYNVAWYQQKPGQSPKALVYSASDRHSGVPDRFAGSGSGTDFTLTISNVQSEDLAEYFCQQYNSYPLTFGAGTKLELK"
  gMFIr Expi cyno OE/par: 0.9
- binder: "CHA.7.528 (antibody, V domains shown) VH: EVQVQQSGPELVKPGASVKISCKASGYTFTKSNMHWVKQSHGKSLEWIGYIYPYNGGTGYNQNFKSKATLTVDISSSTAYMELRSLTLEDSAVYLCAREADYYGNRGQFDYWGQGTLVTVSA VL: DIQMTQSPASLSVSVGETVTITCRASDNIFSNLAWYHQKQGKSPHLLVYGATNLADGVPSRFSGSGSGTQYSLKINSLQSEDFGDYYCQHFWGTPYTFGGGTKLEIK"
  gMFIr Expi cyno OE/par: 12.2
